# testedOn: ScSte2 (Saccharomyces cerevisiae, UniProt D6VTK4)
# Construct: we cloned codon-optimized open reading frames (ORFs) of all 5 proteases and GPCRs; pTDH3-ScSTE2 genome-integrated)
# Sequence (D6VTK4 whole entry): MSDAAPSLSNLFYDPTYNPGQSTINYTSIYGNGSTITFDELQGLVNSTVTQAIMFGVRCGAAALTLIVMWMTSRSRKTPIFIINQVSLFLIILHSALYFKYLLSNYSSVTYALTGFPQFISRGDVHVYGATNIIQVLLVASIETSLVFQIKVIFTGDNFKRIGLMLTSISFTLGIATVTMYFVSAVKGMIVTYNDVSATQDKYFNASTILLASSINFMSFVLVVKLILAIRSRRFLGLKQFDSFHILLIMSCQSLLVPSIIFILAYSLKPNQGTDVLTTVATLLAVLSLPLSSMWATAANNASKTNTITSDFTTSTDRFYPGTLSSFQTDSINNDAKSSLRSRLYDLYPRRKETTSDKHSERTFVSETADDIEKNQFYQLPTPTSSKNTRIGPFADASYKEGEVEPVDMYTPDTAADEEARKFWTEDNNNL
# assayRemarks: cell-based
# conditionDescription: SEM
metric: pEC50
Please keep in mind that pEC50 is minus log10 of the molar concentration; only the number is needed.

Known pEC50 results, listed for orientation:
| smilesCode | pEC50 |
| --- | --- |
| CSCC[C@H](NC(=O)[C@@H]1CCCN1C(=O)[C@H](CCC(N)=O)NC(=O)CNC(=O)[C@@H]1CCCN1C(=O)[C@H](C)NC(=O)[C@H](CC(C)C)NC(=O)[C@H](CCC(N)=O)NC(=O)[C@H](CC(C)C)NC(=O)[C@H](Cc1c[nH]c2ccccc12)NC(=O)[C@H](Cc1c[nH]cn1)NC(=O)[C@@H](N)Cc1c[nH]c2ccccc12)C(=O)N[C@@H](Cc1ccc(O)cc1)C(=O)O | 6.90 |
| CSCC[C@H](NC(=O)[C@@H]1CCCN1C(=O)[C@H](CCC(N)=O)NC(=O)CNC(=O)[C@@H]1CCCN1C(=O)[C@H](CCCCN)NC(=O)[C@H](C)NC(=O)[C@H](CCC(N)=O)NC(=O)[C@H](CC(C)C)NC(=O)[C@H](Cc1c[nH]c2ccccc12)NC(=O)[C@H](Cc1c[nH]cn1)NC(=O)[C@@H](N)Cc1c[nH]c2ccccc12)C(=O)N[C@@H](Cc1ccc(O)cc1)C(=O)O | 7.10 |

// next item, pEC50 requested
[ask] // Input: "CSCC[C@H](NC(=O)[C@@H]1CCCN1C(=O)[C@H](CCC(N)=O)NC(=O)CNC(=O)[C@@H]1CCCN1C(=O)[C@H](CCCCN)NC(=O)[C@H](CC(C)C)NC(=O)[C@H](CCC(N)=O)NC(=O)[C@H](CC(C)C)NC(=O)[C@H](Cc1c[nH]c2ccccc12)NC(=O)[C@H](Cc1c[nH]cn1)NC(=O)[C@H](C)N)C(=O)N[C@@H](Cc1ccc(O)cc1)C(=O)O" . Output its pEC50 only.
[reply] 7.40
